B1: Spectrin alpha chain, erythrocytic 1, residues 979 to 1036; numbered along this chain, P02549 (parent)
chain: EQRVMALYDFQARSPREVTMKKGDVLTLLSSINKDWWKVEAADHQGIVPAVYVRRLAH

# Variants of: B1
# Experiment: abundance fitness (aPCA) (normalised: wild type 0, dead -1); higher = more abundant; growth selection in yeast, the domain comes from the species named
# Assay context: Homo sapiens
Assay endpoint: abundance fitness

INSERT INTO assay_data (variant_description, reported_measurement) VALUES
  ('A42P', -0.223),
  ('D9M', -0.855),
  ('S31R', -0.282),
  ('R54M', -0.518),
  ('D24Y', -0.805),
  ('V53P', -0.579),
  ('K38H', -0.016),
  ('Y8A', 0.346),
  ('T19L', -0.369),
  ('E17K', -0.403),
  ('A57R', -0.053),
  ('L28C', 0.354),
  ('E1R', -0.215),
  ('S14V', -0.677),
  ('E40T', -0.222),
  ('L28T', -0.47),
  ('S31W', -0.814),
  ('A41G', 0.154),
  ('V39W', -0.564),
  ('L7M', -0.049),
  ('A50P', -0.847),
  ('V18G', -0.587),
  ('L29I', -0.266),
  ('V53S', -0.819),
  ('Q45K', 0.09),
  ('Q2D', 0.855),
  ('L26C', -0.046),
  ('A42C', -0.197),
  ('A42E', -0.089),
  ('V48L', -0.717),
  ('Q45W', -0.889),
  ('Q2F', 0.195),
  ('Q11E', -0.328),
  ('Q11V', 0.097),
  ('R13K', -0.414),
  ('S30Y', -0.108),
  ('D24G', -0.883),
  ('L28W', -0.536),
  ('W36K', -0.675),
  ('Q2T', -0.614),
  ('E17A', -0.64),
  ('E17C', -0.911),
  ('A12M', -0.891),
  ('V53T', -0.872),
  ('F10L', -0.658),
  ('I47T', -0.701);

Cited source for all entries: the Human Domainome abundance scans (Beltran et al. 2025)
